FYI, the data here is from patent US20250049896A1.

List of 100 nM Ag Bound (RU) values.
- TEST_TARGET: T1, mf TFRC ecto-mmh (REGN2054), monomeric monkey (cyno) Tfrc ectodomain with C-terminal myc-myc-hexahistidine tag (monkey (cyno), Macaca fascicularis, UniProt H9EXL1 89-760)
- T1 construct: range 89-760; also called mfTfR-mmh; mfTFR-mmh
- T1 sequence (chain, as listed by the source): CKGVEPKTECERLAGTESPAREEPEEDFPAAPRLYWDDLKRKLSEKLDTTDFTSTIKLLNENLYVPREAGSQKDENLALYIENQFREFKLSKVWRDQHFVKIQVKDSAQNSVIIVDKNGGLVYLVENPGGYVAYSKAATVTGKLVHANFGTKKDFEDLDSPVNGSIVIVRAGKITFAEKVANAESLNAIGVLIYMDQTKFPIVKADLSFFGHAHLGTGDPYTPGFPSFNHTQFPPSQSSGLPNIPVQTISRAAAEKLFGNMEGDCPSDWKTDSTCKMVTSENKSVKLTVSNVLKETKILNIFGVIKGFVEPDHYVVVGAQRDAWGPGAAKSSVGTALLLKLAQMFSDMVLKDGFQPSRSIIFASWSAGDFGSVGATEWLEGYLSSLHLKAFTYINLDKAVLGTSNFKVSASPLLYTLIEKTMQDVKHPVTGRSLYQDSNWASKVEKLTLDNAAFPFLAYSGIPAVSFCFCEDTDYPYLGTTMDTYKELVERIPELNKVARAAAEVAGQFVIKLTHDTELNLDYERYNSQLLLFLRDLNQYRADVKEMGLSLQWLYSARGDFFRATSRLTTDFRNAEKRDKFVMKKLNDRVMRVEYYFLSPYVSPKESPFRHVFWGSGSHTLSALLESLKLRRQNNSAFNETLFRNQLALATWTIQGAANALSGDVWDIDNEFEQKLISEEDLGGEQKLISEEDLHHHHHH
- ASSAY_EXPLANATION: SPR (Biacore), mAb captured on anti-human Fc, 100 nM mfTfR-mmh, 25 C
READOUT_KIND: 100 nM Ag Bound (RU)

# BINDER, UNIT_ABBREV, NUMERIC_READOUT
data = [
    ("69331 (antibody, human IgG1, kappa, V domains shown, Tested as bivalent human IgG1 from CHO primary supernatant) VH: QVQLVESGGGVVQPGRSLRLSCIASGFTFSVYGIHWVRQAPGKGLEWMAVISHDGNIKHYADSVKGRFTISRDNSKNTLYLQINSLRTEDTAVYYCAKDTWNSLDTFDIWGQGTMVTVSS VL: DIQLTQSPSSLSASVGDRVTITCWASQGISSYLAWYQQKPGKAPKLLIYAASTLQSGVPSRFSGSGSGTEFTLTISSLQPEDFATYYCQQLNSYPLTFGGGTKVEIKR", "RU", 26),
    ("69263 (antibody, human IgG1, kappa, V domains shown, Tested as bivalent human IgG1 from CHO primary supernatant) VH: EVQLVESGGGLVQPGRSLRLSCAVSGFTFDDYAMHWVRQAPGKGLEWVSGISWNSGTRGYADSVKGRFTISRDNAKNSLYLQMNSLRGEDTALYYCVKDITISPNYYGMDVWGQGTTVTVSS VL: DIQMTQSPSSLSASVGDRVTITCRASQDISHYSAWYQQKPGKLPNLLIYAASTLQSGVPSRFSGSGSGTDFSLTTSSLQPEDVATYYCQKYNSVPLTFGGGTKVEIKR", "RU", 77),
    ("69348 (antibody, human IgG1, kappa, V domains shown, Tested as bivalent human IgG1 from CHO primary supernatant) VH: QVQLVESGGGVVQPGRSLRLSCAASGFTFTTYGMHWVRQAPGKGLEWVAVIWYDGSNKYYGDSVKGRFTISRDNSKNTLYLQMNSLRVDDTAVYYCTRTHGYTRSSDGFDYWGQGTLVTVSS VL: DIQMTQSPSSLSASVGDRVTITCRASQSIRNVLGWFQQKPGKAPQRLIYAASSLQSGVPSRFSGSGSGTEFTLTISSLQPEDFATYYCLQHNFYPLTFGGGTKVEIKR", "RU", 433),
]
